# METHOD: Spectroscopic measurements (absorption, emission, quantum yield, extinction coefficient)
# Format: physicochemical
# CONDITION SUMMARY: BDNCA library, absorption
Readings of Abs for the listed compounds

{"MOLECULAR STRING": "CC1=CC(/C=C/c2ccc3ccc4cccc5ccc2c3c45)=[N+]2C1=C(c1ccc(NC(=O)CCl)cc1)c1cccn1[B-]2(F)F", "Abs (nm)": 598}
{"MOLECULAR STRING": "CC1=CC(/C=C/c2ccc(-c3ccccn3)cc2)=[N+]2C1=C(c1ccc(NC(=O)CCl)cc1)c1cccn1[B-]2(F)F", "Abs (nm)": 566}
{"MOLECULAR STRING": "CC1=CC(/C=C/c2cc(Cl)cc(Cl)c2O)=[N+]2C1=C(c1ccc(NC(=O)CCl)cc1)c1cccn1[B-]2(F)F", "Abs (nm)": 561}
{"MOLECULAR STRING": "Cc1cc(/C=C/c2ccc(CO)o2)n2c1C(c1ccc(NC(=O)CCl)cc1)=C1C=CC=[N+]1[B-]2(F)F", "Abs (nm)": 575}
{"MOLECULAR STRING": "CC1=CC(/C=C/c2cn(C)c3ccccc23)=[N+]2C1=C(c1ccc(NC(=O)CCl)cc1)c1cccn1[B-]2(F)F", "Abs (nm)": 548}
{"MOLECULAR STRING": "COc1cccc(F)c1/C=C/C1=[N+]2C(=C(c3ccc(NC(=O)CCl)cc3)c3cccn3[B-]2(F)F)C(C)=C1", "Abs (nm)": 559}
{"MOLECULAR STRING": "CC1=CC(/C=C/c2ccc(C)c(F)c2)=[N+]2C1=C(c1ccc(NC(=O)CCl)cc1)c1cccn1[B-]2(F)F", "Abs (nm)": 556}
{"MOLECULAR STRING": "CC1=CC(/C=C/c2ccc(Br)s2)=[N+]2C1=C(c1ccc(NC(=O)CCl)cc1)c1cccn1[B-]2(F)F", "Abs (nm)": 574}
